The following compounds are shown together with reported inhibition of SARS-CoV-2 cytopathic effect values.
# System: Vero E6 infected with SARS-CoV-2
# assay.text: inhibition of SARS-CoV-2 cytopathic effect; higher = more antiviral protection, active = above 15
# condition.details: 10000 nM; 48 h
Give the quantity in %, number only.

Documented inhibition of SARS-CoV-2 cytopathic effect of `CCOC(=O)c1ccc(-c2ccc(OC(=O)N(C)Cc3cccc(-c4ccncc4)c3)cc2)cc1` : 4.58

Documented inhibition of SARS-CoV-2 cytopathic effect of `N#C/C(=C\c1ccc(O)c(O)c1)C(=O)NCc1ccccc1` : 5.05

Documented inhibition of SARS-CoV-2 cytopathic effect of `C=C1CCN([C@H](C)[C@](O)(Cn2cncn2)c2ccc(F)cc2F)CC1` : 2.84

Documented inhibition of SARS-CoV-2 cytopathic effect of `Nc1nc(Cl)nc2c1ncn2[C@@H]1O[C@H](CO)[C@@H](O)[C@@H]1F` : 3.69

Field: next compound
Documented inhibition of SARS-CoV-2 cytopathic effect of `COc1cc2ncnc(Nc3cccc(Cl)c3F)c2cc1OC(=O)N1CCN(C)C[C@H]1C` : -9.49

---

# Test system: Vero E6 infected with SARS-CoV-2
# assay.text: inhibition of SARS-CoV-2 cytopathic effect; higher = more antiviral protection, active = above 15
# condition.details: 8.33 nM; 48 h
The following molecules are shown together with reported inhibition of SARS-CoV-2 cytopathic effect values.
Give the quantity in %, number only.

Use the examples below as a reference point.
Documented inhibition of SARS-CoV-2 cytopathic effect of COP(=O)(OC)OC(c1ccc(Cl)cc1)P(=O)(OC)OC (centres undefined) [mifobate] : -10.9

Documented inhibition of SARS-CoV-2 cytopathic effect of `CN1C(=O)N(c2cc(Cl)cc(Cl)c2)C(=O)[C@]12CN(c1ccc(C(=O)O)cn1)C[C@H]2c1ccc(C#N)cc1` : 0.43

Documented inhibition of SARS-CoV-2 cytopathic effect of `Cc1nc(C#Cc2ccnc(Cl)c2)c(C)n1-c1ccc(F)cc1` : -0.64

Documented inhibition of SARS-CoV-2 cytopathic effect of `C/C(O)=C(\C#N)C(=O)Nc1cc(Br)ccc1Br` : 0.96

Documented inhibition of SARS-CoV-2 cytopathic effect of `O=c1ccc2cc3ccoc3cc2o1` : 1.39

Documented inhibition of SARS-CoV-2 cytopathic effect of `CC(=O)c1cc([N+](=O)[O-])c(Sc2ccc(F)cc2F)s1` : 1.74

Documented inhibition of SARS-CoV-2 cytopathic effect of O=C(O)C(F)(F)C(F)(F)C(F)(F)C(F)(F)C(F)(F)C(F)(F)C(F)(F)F [ammonium-perfluorocaprylate] : -0.68

Documented inhibition of SARS-CoV-2 cytopathic effect of CC(C)[C@H](N)C(=O)OCC(CO)OCn1cnc2c(=O)nc(N)[nH]c21 (mixture of isomers) : 8.27

Continuing:
Documented inhibition of SARS-CoV-2 cytopathic effect of `CC(C)c1ccccc1S(=O)(=O)c1cc(N)c2ncccc2c1[N+](=O)[O-]` : 1.24

---

# Tested on: Vero E6 infected with SARS-CoV-2
# assay.text: inhibition of SARS-CoV-2 cytopathic effect; higher = more antiviral protection, active = above 15
# condition.details: 100 nM; 48 h
property.name: inhibition of SARS-CoV-2 cytopathic effect (%)
Give the quantity in %, number only.

Use the examples below as a reference point.
Documented inhibition of SARS-CoV-2 cytopathic effect of `Nc1ncnc2c1ncn2[C@H]1CC[C@@H](CO)O1` : 2.1

Documented inhibition of SARS-CoV-2 cytopathic effect of `CC(=O)N(O)[C@@H]1c2cc(C#N)ccc2OC(C)(C)[C@H]1O` : 1.05

Documented inhibition of SARS-CoV-2 cytopathic effect of `COc1cc2c(cc1OC)-c1c/c(=N\c3c(C)cc(C)cc3C)n(C)c(=O)n1CC2` : -0.55

Documented inhibition of SARS-CoV-2 cytopathic effect of `Cc1ccc(/N=C/N(C)/C=N/c2ccc(C)cc2C)c(C)c1` : -1.78

Continuing:
Documented inhibition of SARS-CoV-2 cytopathic effect of `CO[C@@H](C(=O)N1Cc2[nH]nc(NC(=O)c3ccc(N4CCN(C)CC4)cc3)c2C1)c1ccccc1` : -1.12
